Cited source: patent US8168596B2

tested on: MMP-13; experiment: Western blot of MMP-13 in PMA- or IL-1β-pre-treated SW1353 cells (Example 6); format: cell-based, human; settings: PMA-pre-treated SW1353 culture medium; 0.1 μM, 48 h
measured_attribute: MMP-13, Western blot, relative to Ctrl 1.00

CC(C)(O)C1CC[C@](C)(C2[C@@H](O)C[C@@]3(C)C4C[C@H](OC5OC(CO)C(O)C(O)C5O)C5C(C)(C)[C@@H](O)CCC56CC46CC[C@]23C)O1 (stereo partly drawn) ... 0.84

*Q* Reported MMP-13, Western blot, relative to Ctrl 1.00 for C[C@@H]1C[C@H]2[C@@H]3CCC4=CC(=O)C=C[C@]4(C)[C@@]3(F)[C@@H](O)C[C@]2(C)[C@@]1(O)C(=O)CO [Dex, Dexamethasone, reference compound] : what is it?
*A* 0.46

*Q* Reported MMP-13, Western blot, relative to Ctrl 1.00 for CC(=O)O[C@H]1[C@H](O[C@H]2CC[C@]34C[C@]35CC[C@]3(C)[C@@H]([C@@]6(C)CC[C@@H](C(C)(C)O)O6)[C@@H](O)C[C@@]3(C)[C@@H]5C[C@H](O[C@@H]3O[C@H](CO)[C@@H](O)[C@H](O)[C@H]3O)[C@H]4C2(C)C)OC[C@@H](OC(C)=O)[C@@H]1O [IsoAS1, Isoastragaloside I] : what is it?
*A* 1.03
